system: U87 glioblastoma cell line; test: In-vitro cell survival assay (Alamar blue), U87; format: cell-based; settings: 24 h; U87, one day after compound addition
Value type: EC50 (µM)

Compound	Unit label	Bound type	Meas value
NCC1CCN(C(=O)c2cccc(Nc3ncc(Cl)c(Nc4ccc5ncsc5c4)n3)c2)CC1 [drawing 470]	µM	=	18
O=C(c1cccc(Nc2ncc(Cl)c(Nc3ccc4ncsc4c3)n2)c1)N1CCCCC1 [drawing 465]	µM	=	12
O=C(NCC1CCNCC1)c1ccc(Nc2ncc(Cl)c(Nc3ccc4ncsc4c3)n2)cc1 [drawing 468]	µM	>	100
Cc1cccc(Nc2nccc(Nc3cccc(C(=O)Nc4ccc(F)cc4)c3)n2)c1 [drawing 382]	µM	=	27
O=C(c1ccccc1)n1nc(-c2ccco2)nc1NCc1ccccc1	µM	>	100
O=C(NCC1CCCCC1)c1cccc(Nc2nccc(Nc3ccc4ncsc4c3)n2)c1 [drawing 407]	µM	=	33
CC(C)c1nc(Nc2ccc(C(=O)NCc3ccccc3)cc2)nc(Nc2cccc(Cc3nc4ccccc4s3)c2)n1 [drawing 453]	µM	>	100
O=C1NN=C(c2ccccc2)/C1=C1\OC(c2ccccc2)=CS1 [drawing 392]	µM	=	37
Nc1nc(Nc2ccc(C(=O)N3CCC[C@H]4CCCC[C@H]43)cc2)cc(Nc2ccc3ncsc3c2)n1	µM	=	30
NC(=O)c1c(NC(=O)Nc2ccccc2)sc2c1CCCC2 [drawing 401]	µM	=	80
Nc1ccc(Nc2nccc(Nc3cc(C4CC4)[nH]n3)n2)cc1 [drawing 436]	µM	=	5
C1=C(c2cccc(Nc3nccc(Nc4ccc5ncsc5c4)n3)c2)CCNC1 [drawing 441]	µM	=	40
COc1ccccc1-c1cc(C(F)F)n2ncc(C(=O)NCc3cccnc3)c2n1 [drawing 361]	µM	=	22
O=C(NCCc1ccccc1)c1cccc(Nc2nccc(Nc3ccc4ncsc4c3)n2)c1 [drawing 418]	µM	=	13
O=C(NCc1ccco1)c1cccc(Nc2nccc(Nc3ccc4ncsc4c3)n2)c1 [drawing 376]	µM	=	21
Cc1cccc(Nc2nccc(Nc3cccc(C(=O)NC4CCN(C)CC4)c3)n2)c1 [drawing 422]	µM	=	18
CN1CCN(C(=O)c2cccc(Nc3ncc(Cl)c(Nc4ccc5ncsc5c4)n3)c2)CC1 [drawing 466]	µM	=	24
Cc1cc(C)n(-c2cccc(C(=O)NC[C@H]3Cc4cc(Cl)cc(-c5cnccn5)c4O3)c2)n1	µM	=	94
COc1ccc(Nc2nc(N(C)CCO)nc3c2cnn3-c2ccccc2)cc1 [drawing 387]	µM	=	11
Cc1ccc(CNC(=O)c2cccc(Nc3nccc(Nc4ccc5ncsc5c4)n3)c2)o1 [drawing 419]	µM	=	16
O=C(NCC(c1cccs1)S(=O)(=O)c1ccc(F)cc1)c1ccccc1 (stereo not drawn) [drawing 434]	µM	=	30
Cc1cccc(C(=O)n2nc(-c3ccco3)nc2NCc2ccccc2)c1 [drawing 431]	µM	>	100
COc1cccc(Nc2cc(Nc3cccc(C(=O)N4CCN(C(C)=O)CC4)c3)nc(N)n2)c1 [drawing 377]	µM	>	100
CC(C)c1nc(Nc2ccc(C(=O)N3CCCCC3)cc2)nc(Nc2ccc3ncsc3c2)n1 [drawing 455]	µM	=	40
CCN(CC)CCNC(=O)c1cccc(Nc2nccc(Nc3ccc4ncsc4c3)n2)c1 [drawing 373]	µM	=	37
O=C(NCC1CCNCC1)c1cccc(Nc2ncc(Cl)c(Nc3ccc4ncsc4c3)n2)c1 [drawing 471]	µM	=	80
CC(C)(C)OC(=O)NC1CCN(C(=O)c2ccc(Nc3ncc(Cl)c(Nc4ccc5ncsc5c4)n3)cc2)CC1 [drawing 446]	µM	=	80
CC(C)c1nc(Nc2ccc3ncsc3c2)nc(N2CCCC2)n1 [drawing 451]	µM	>	100
O=C(COc1ccccc1)NCC(c1cccs1)S(=O)(=O)c1ccc(Cl)cc1 (stereo not drawn) [drawing 427]	µM	=	36
Cc1cccc(Nc2nccc(Nc3cccc(C(=O)N(C)CCCN(C)C)c3)n2)c1 [drawing 425]	µM	=	46
